Target: T1, GFP-9S library array, motif 4 ND N98S;D124R (synthetic construct, N98S;D124R)
T1 chain: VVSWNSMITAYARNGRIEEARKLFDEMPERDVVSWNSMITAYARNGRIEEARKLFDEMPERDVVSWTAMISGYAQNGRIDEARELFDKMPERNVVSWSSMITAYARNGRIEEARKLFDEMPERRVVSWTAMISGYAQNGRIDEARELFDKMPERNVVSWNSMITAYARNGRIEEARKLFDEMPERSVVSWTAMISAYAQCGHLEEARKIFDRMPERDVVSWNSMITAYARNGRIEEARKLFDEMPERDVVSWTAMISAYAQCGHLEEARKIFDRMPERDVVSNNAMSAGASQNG
Test: high-throughput RNA pulldown from lysate on Ni-NTA beads; HRP: 50 mM Tris pH 8, 150 mM NaCl, 1 mM beta-mercaptoethanol, 50 ug/ml BSA, 3 ug/ml yeast RNA, 0.5% heparin; ITC and FP: Tris pH 8, 200 mM KCl, 5% glycerol; MST: 50 mM Tris pH 8, 200 mM NaCl, 1 mM DTT, BSA, heparin, 0.05% Tween 20
Details: tags: N-terminal His-eGFP; label: 5' IRDye 800CW
Reported Kd values for the following binders.
# output: bare number, implied unit nM

Problem: Give Kd for the following binder: AUUAUACGUGA (ssRNA) [IR-rpoA-U]
Result: 109

Shift focus to the following entry.
Problem: Give Kd for the following binder: AUUAAACGUGA (ssRNA) [IR-rpoA-A]
Result: 63.5
